outcome_measure: melting point

Solved cases below.
sample_smiles=CN(C)CCOc1cc2c(cc1C(=O)N1CCc3cc(Cl)ccc31)[nH]c(=O)c1cnc(C3CCOCC3)n12 result_value="219 to 221 °C (dec.)"
sample_smiles=COCc1cc2c(cc1C(=O)N1Cc3ccccc3C1)[nH]c(=O)c1cnc(C3CCOCC3)n12.Cl result_value="261 to 264 °C (dec.)"
sample_smiles=Cc1cc2c(cc1C(=O)N1CCc3cc(Cl)ccc31)[nH]c(=O)c1cnc(C3CCOCC3)n12.Cl result_value="265 to 266 °C"

Next, consider the following compound.
What measured melting point goes with Cc1cc2c(cc1C(=O)N1CCc3cc(F)c(F)cc31)[nH]c(=O)c1nnc(C3CCCC3)n12.Cl ?
210 to 212 °C (dec.)
